Tested on: Plasma
assay notes: Initial plasma concentration in Sprague-Dawley rat at 2 mg/kg, iv by HPLC/MS/MS method
Type: ADME, organism-based
details: in vivo
readout kind: C0 (µM)
Give the value, in units of µM, as a plain number.

Incoming: Which measured C0 belongs to Cc1cc(C(=O)O)nc(N2C[C@H]3C[C@@H](c4ccccc4C(F)(F)F)C[C@H]3C2)n1 , tested on Plasma?
Outgoing: 58.6

###

assay target: Retinol-binding protein 4 (Homo sapiens, UniProt P02753)
assay notes: Displacement of [3H]-retinol from RBP4 (unknown origin) by scintillation proximity assay
Examples of molecules with documented IC50 follow.
Supply the numeric figure in nM, leaving out any unit text.

Use the examples below as a reference point.
[[record]]
substance_smiles = "Cc1cc(C(=O)O)nc(N2C[C@H]3C[C@@H](c4cc(F)ccc4C(F)(F)F)C[C@H]3C2)n1"
assay_target = "Retinol-binding protein 4 (Homo sapiens, UniProt P02753)"
unit_annotation = "nM"
assay_value = 46.3

[[record]]
substance_smiles = "COC(=O)c1cc(C)nc(N2C[C@H]3C[C@@H](c4ccccc4C(F)(F)F)C[C@H]3C2)n1"
assay_target = "Retinol-binding protein 4 (Homo sapiens, UniProt P02753)"
unit_annotation = "nM"
assay_value = 6.3

[[record]]
substance_smiles = "Cc1sc(N2C[C@H]3C[C@@H](c4ccccc4C(F)(F)F)C[C@H]3C2)nc1C(=O)O"
assay_target = "Retinol-binding protein 4 (Homo sapiens, UniProt P02753)"
unit_annotation = "nM"
assay_value = 29.3

[[record]]
substance_smiles = "Cc1cc(C(=O)O)nc(N2C[C@@H]3CN(c4ccccc4C(F)(F)F)C[C@@H]3C2)n1"
assay_target = "Retinol-binding protein 4 (Homo sapiens, UniProt P02753)"
unit_annotation = "nM"
assay_value = 57.4

[[record]]
substance_smiles = "Cc1cc(C(=O)O)nc(N2C[C@H]3C[C@@H](c4cccc(F)c4Cl)C[C@H]3C2)n1"
assay_target = "Retinol-binding protein 4 (Homo sapiens, UniProt P02753)"
unit_annotation = "nM"
assay_value = 137

[[record]]
substance_smiles = "Cc1cc(C(=O)O)nc(N2C[C@H]3C[C@@H](c4cccnc4C(F)(F)F)C[C@H]3C2)n1"
assay_target = "Retinol-binding protein 4 (Homo sapiens, UniProt P02753)"
unit_annotation = "nM"
assay_value = 31.1

[[record]]
substance_smiles = "O=C(O)c1cnnc(N2C[C@H]3C[C@@H](c4ccccc4C(F)(F)F)C[C@H]3C2)c1"
assay_target = "Retinol-binding protein 4 (Homo sapiens, UniProt P02753)"
unit_annotation = "nM"
assay_value = 23

[[record]]
substance_smiles = "Cc1cc(C(N)=O)nc(N2C[C@H]3C[C@@H](c4ccccc4C(F)(F)F)C[C@H]3C2)n1"
assay_target = "Retinol-binding protein 4 (Homo sapiens, UniProt P02753)"
unit_annotation = "nM"
assay_value = 3.3

[[record]]
substance_smiles = "COC(=O)c1cc(C)nc(N2CCN(c3ccccc3C(F)(F)F)CC2)n1"
assay_target = "Retinol-binding protein 4 (Homo sapiens, UniProt P02753)"
unit_annotation = "nM"
assay_value = 9.7

[[record]]
substance_smiles = "Cc1cc(C(=O)O)nc(N2CCN(c3ccccc3C(F)(F)F)CC2)n1"
assay_target = "Retinol-binding protein 4 (Homo sapiens, UniProt P02753)"
unit_annotation = "nM"
assay_value = 89.5


Incoming: Given the molecule O=C(O)c1cncc(N2C[C@H]3C[C@@H](c4ccccc4C(F)(F)F)C[C@H]3C2)n1 , what is its reported IC50?
Outgoing: 166

Incoming: I'd like to know its IC50. The molecule in question is Cc1ccc(C(=O)O)c(N2C[C@H]3C[C@@H](c4ccccc4C(F)(F)F)C[C@H]3C2)n1
Outgoing: 68.4
